Below, each entry is listed alongside its reported Content of OXA/%.
- Assay type: physicochemical
- assay context: light, Day 5

{"compound": "O=C(O)C1(C(=O)O)CCC1.O=C1[O][Pt]2([NH]C3CCCCC3[NH]2)[O]C1=O (stereo not shown) [OXA-CBDA]", "Content of OXA/% / %": 99.56}
{"compound": "O=C1[O][Pt]2([NH]C3CCCCC3[NH]2)[O]C1=O.OCC1OC(Oc2cc(O)cc(C=Cc3ccc(O)cc3)c2)C(O)C(O)C1O (stereo not shown) [OXA-PDT, oxaliplatin-polydatin cocrystal]", "Content of OXA/% / %": 99.88}
{"compound": "CCN(CC)CCCC(C)Nc1ccnc2cc(Cl)ccc12.O=C1[O][Pt]2([NH]C3CCCCC3[NH]2)[O]C1=O (stereo not shown) [OXA-U72, oxaliplatin-chloroquine cocrystal]", "Content of OXA/% / %": 99.64}
{"compound": "O=C1[O][Pt]2([NH][C@@H]3CCCC[C@H]3[NH]2)[O]C1=O [OXA, oxaliplatin, reference compound]", "Content of OXA/% / %": 96.89}

###

- Format: physicochemical
- assay context: 60° C., Day 1

{"molecule": "O=C(O)C1(C(=O)O)CCC1.O=C1[O][Pt]2([NH]C3CCCCC3[NH]2)[O]C1=O (stereo not shown)", "Content of OXA/% [%]": 100}
{"molecule": "O=C1[O][Pt]2([NH][C@@H]3CCCC[C@H]3[NH]2)[O]C1=O [OXA, oxaliplatin, reference compound]", "Content of OXA/% [%]": 98.36}
{"molecule": "O=C1[O][Pt]2([NH]C3CCCCC3[NH]2)[O]C1=O.OCC1OC(Oc2cc(O)cc(C=Cc3ccc(O)cc3)c2)C(O)C(O)C1O (stereo not shown)", "Content of OXA/% [%]": 100}
{"molecule": "CCN(CC)CCCC(C)Nc1ccnc2cc(Cl)ccc12.O=C1[O][Pt]2([NH]C3CCCCC3[NH]2)[O]C1=O (stereo not shown)", "Content of OXA/% [%]": 100}

###

- Type: physicochemical
- assay context: 60° C., Day 5
// reported Content of OXA/% for each item listed

{"compound": "O=C1[O][Pt]2([NH][C@@H]3CCCC[C@H]3[NH]2)[O]C1=O [OXA, oxaliplatin, reference compound]", "Content of OXA/% / %": 99.18}
{"compound": "O=C(O)C1(C(=O)O)CCC1.O=C1[O][Pt]2([NH]C3CCCCC3[NH]2)[O]C1=O (stereo not shown)", "Content of OXA/% / %": 99.12}
{"compound": "CCN(CC)CCCC(C)Nc1ccnc2cc(Cl)ccc12.O=C1[O][Pt]2([NH]C3CCCCC3[NH]2)[O]C1=O (stereo not shown)", "Content of OXA/% / %": 99.46}
{"compound": "O=C1[O][Pt]2([NH]C3CCCCC3[NH]2)[O]C1=O.OCC1OC(Oc2cc(O)cc(C=Cc3ccc(O)cc3)c2)C(O)C(O)C1O (stereo not shown)", "Content of OXA/% / %": 99.73}
